Attribute: IC50
test system: rat aorta; test: reduction of calcium-induced contraction (response to calcium chloride) of spirally cut strips of rat aorta in vitro; type: cell-based; details: isolated rat aorta strips; 45 millimolar potassium; 2 millimolar calcium; retest after 45 minutes with compound; read-out: molar concentration of the compounds required to reduce the response by 50% (IC50)
Reply numerically in nM, unit not repeated.

>  <compound>
CCOC(=O)C1=C(COCCN)NC(C)=C(C(=O)OC)C1c1ccccc1Cl (stereo not drawn) [Example 12]

>  <target_desc>
rat aorta

>  <IC50 / nM>
3.2

$$$$
>  <compound>
CCOC(=O)C1=C(COCCNC)NC(C)=C(C(=O)OC)C1c1ccccc1Cl.O=C(O)/C=C\C(=O)O (stereo not drawn) [Example 24, maleate]

>  <target_desc>
rat aorta

>  <IC50 / nM>
3.2

$$$$

# ---- query compound ----
If you can, please state the reported IC50 value of CCOC(=O)C1=C(COCCNC)NC(C)=C(C(=O)OC)C1c1ccccc1Cl.O=C(O)/C=C\C(=O)O (stereo not drawn) [Example 23, maleate] .
3.2
